Where do these numbers come from? They come from ChEMBL document CHEMBL1177648.

# System: MCF7
# assay: Cytotoxicity against human MCF7 cells after 24 hrs by MTT assay
# Format: functional, cell-based
# statedConditions: Homo sapiens, MCF7, 24 h; read-out: IC50
readoutKind: IC50 (µM)
// return numeric value only (unit: µM, not printed)

# IC50 lookup, item `COc1ccc(/C=C/C(=O)c2c(C)cc(O)c(C(=O)/C=C/c3ccc(OC)c(OC)c3)c2-c2ccc(OCc3ccccc3)cc2)cc1OC`
30

Record request: IC50 value, item `COc1ccc(/C=C/C(=O)c2c(C)cc(O)c(C(=O)/C=C/c3ccc(OC)cc3)c2-c2ccc(OCc3ccccc3)cc2)cc1`
30

Suppose we examine the molecule `Cc1cc(O)c(C(=O)/C=C/c2ccc(Br)cc2)c(-c2ccc(Br)cc2)c1C(=O)/C=C/c1ccc(Br)cc1` ; what IC50 value has been reported?
15

Record request: IC50 value, item `Cc1cc(O)c(C(=O)/C=C/c2ccc(Br)cc2)c(-c2ccc(OCc3ccccc3)cc2)c1C(=O)/C=C/c1ccc(Br)cc1`
30
